Overview of reported Ki across a group of compounds:
Molecular target: rat histamine H3 receptors (Rattus norvegicus)
readout-kind: Ki (nM)

>>> val("CC(CN1CCOCC1)NCCCOc1ccc2c(c1)CCC(CN1CCCC1)C2 (single isomer, unassigned; (-)) [51 (−)]")
6.2
>>> val("CC1CCN(CCCOc2ccc3c(c2)CCC(CN2CCCC2)C3)CC1 (single isomer, unassigned; (-)) [42 (−)]")
4.32
>>> val("CC1CC(C)CN(CCCOc2ccc3c(c2)CCC(CN2CCCC2)C3)C1 (single isomer, unassigned; (-)) [81 (−)]")
9.14
>>> val("c1ccc(CNCCCOc2ccc3c(c2)CCC(CN2CCCC2)C3)cc1 (single isomer, unassigned; (-)) [28 (−)]")
4.7
>>> val("Cl.c1cc2c(cc1OCCCN1CCC(N3CCCCC3)CC1)CCC(CN1CCCC1)C2 (racemic) [7 (±), hydrochloride]")
3
>>> val("Clc1ccc(CNCCCOc2ccc3c(c2)CCC(CN2CCCC2)C3)cc1 (single isomer, unassigned; (-)) [24 (−)]")
0.84
>>> val("Cl.c1cc2c(cc1OCCCNC1CCC3(CCCCC3)CC1)CCC(CN1CCCC1)C2 (single isomer, unassigned; (-)) [16 (−), hydrochloride]")
7.2
>>> val("CN(CCCOc1ccc2c(c1)CCC(CN1CCCC1)C2)Cc1ccco1 (single isomer, unassigned; (-)) [55 (−)]")
4.5
>>> val("Fc1ccc(CNCCCOc2ccc3c(c2)CCC(CN2CCCC2)C3)cc1 (single isomer, unassigned; (-)) [32 (−)]")
1.25
>>> val("CC1CCCCN1CCCOc1ccc2c(c1)CCC(CN1CCCC1)C2 (single isomer, unassigned; (-)) [41 (−)]")
5.89
>>> val("Cl.c1cc2c(cc1OCCCN1CCCCC1)CCC(CN1CCCC1)C2 (single isomer, unassigned; (-)) [10 (−), hydrochloride]")
1.1
>>> val("c1cc2c(cc1OCCCNC1CCCCC1)CCC(CN1CCCC1)C2 (single isomer, unassigned; (-)) [64 (−)]")
4.36
>>> val("Clc1ccc(CNCCCOc2ccc3c(c2)CCC(CN2CCCC2)C3)c(Cl)c1 (single isomer, unassigned; (-)) [79 (−)]")
1.9
>>> val("Cl.c1cc2c(cc1OCCCN1CCCC1)CCC(CN1CCCC1)C2 (racemic) [6 (±), hydrochloride]")
9
>>> val("Clc1ccc(CNCCCOc2ccc3c(c2)CCC(CN2CCCC2)C3)cc1Cl (single isomer, unassigned; (-)) [27 (−)]")
1.58
>>> val("c1cc2c(cc1OCCCN1CCCCC1)CCC(CN1CCCC1)C2 (racemic) [3 (±)]")
8.4

###

The following compounds are listed with their measured Ki values.
Target: rat histamine H3 receptors (Rattus norvegicus, UniProt Q9QYN8)
Sequence (Q9QYN8 whole entry): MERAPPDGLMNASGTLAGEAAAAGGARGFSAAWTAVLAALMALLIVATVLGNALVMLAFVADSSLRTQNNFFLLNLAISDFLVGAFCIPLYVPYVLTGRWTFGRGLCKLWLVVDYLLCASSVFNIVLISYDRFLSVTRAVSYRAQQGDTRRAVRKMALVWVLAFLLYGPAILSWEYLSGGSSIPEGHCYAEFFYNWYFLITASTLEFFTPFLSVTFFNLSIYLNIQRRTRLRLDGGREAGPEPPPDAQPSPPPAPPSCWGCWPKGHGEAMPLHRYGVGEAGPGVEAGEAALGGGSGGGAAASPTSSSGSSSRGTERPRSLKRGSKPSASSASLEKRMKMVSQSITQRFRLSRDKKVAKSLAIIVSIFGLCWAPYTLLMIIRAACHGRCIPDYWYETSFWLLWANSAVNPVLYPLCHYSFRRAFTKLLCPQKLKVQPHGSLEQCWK
readout-kind: Ki (nM)

>>> val("Fc1ccc(CNCCCOc2ccc3c(c2)CCC(CN2CCCC2)C3)cc1F (single isomer, unassigned; (-)) [77 (−)]")
1.95
>>> val("c1cc2c(cc1OCCCN1CC3CCCC1C3)CCC(CN1CCCC1)C2 (single isomer, unassigned; (-)) [65 (−)]")
2.11
>>> val("Cl.Cl.c1cc2c(cc1OCCN1CCCCC1)CCC(CN1CCCC1)C2 (single isomer, unassigned; (-)) [92 (−), dihydrochloride]")
11.3
>>> val("CC1CCCN(CCCOc2ccc3c(c2)CCC(CN2CCCC2)C3)C1 (single isomer, unassigned; (+)) [40 (+)]")
8.4
>>> val("CC1(C)CCCN(CCCOc2ccc3c(c2)CCC(CN2CCCC2)C3)C1.Cl (single isomer, unassigned; (-)) [15 (−), hydrochloride]")
5
>>> val("CC1CCCN(CCCOc2ccc3c(c2)CCC(CN2CCCC2)C3)C1 (single isomer, unassigned; (-)) [40 (−)]")
3.54
>>> val("Fc1ccc(C2CCCN2CCCOc2ccc3c(c2)CCC(CN2CCCC2)C3)cc1 (single isomer, unassigned; (+)) [71 (+)]")
9.6
